assay: activators of APP 5'UTR luciferase reporter, primary screen, SH-SY5Y cells (AID 1276); conditions: SH-SY5Y APP 5'UTR luciferase reporter, luminescence; at 2 µM; hits give high values; zero percent = DMSO vehicle wells
The campaign covered roughly 190,000 compounds. About 2,000 (1.1%) were called active. Shown is part of a subset that was picked to be rich in actives.
activation values, listed per item

Example results:
Q: Given the molecule Cc1cccc(NC(=O)Nc2ccc3c(c2)OCO3)n1 , what is its reported activation?
Result: 137% (active)

Q: Given the molecule CCOc1ccc2nc(Nc3nc4ccc(NC(C)=O)cc4s3)sc2c1 , what is its reported activation?
Result: -5.77% (inactive)

Q: Given the molecule O=C(Nc1nc(-c2cccnc2)cs1)c1ccccc1F , what is its reported activation?
Result: 61.5% (inactive)

Others:
Q: Given the molecule Cc1ccc2nc(-c3ccc(NC(=O)CN(C)S(=O)(=O)c4ccccc4)cc3)sc2c1 , what is its reported activation?
Result: 190% (active)

Q: Given the molecule Cc1cccc(N(CC(=O)Nc2ccc(-c3nc4ccc(C)cc4s3)cc2)S(C)(=O)=O)c1 , what is its reported activation?
Result: 104% (inactive)

Q: Given the molecule COc1cccc(N(Cc2nnc3n2CCCCC3)C(=O)Nc2ccccc2F)c1 , what is its reported activation?
Result: 3.63% (inactive)

Q: Given the molecule CC(NC(=O)Nc1ccc2c(c1)OCO2)c1ccncc1 (stereo not drawn) , what is its reported activation?
Result: 12.1% (inactive)

Q: Given the molecule COc1cc(/C=N/NC(=O)c2cc(C)n(-c3ccc(F)cc3)c2C)cc(OC)c1O , what is its reported activation?
Result: 0.41% (inactive)

Q: Given the molecule COc1ccc(C(=O)Nc2ccc3c(c2)OCO3)cc1OC , what is its reported activation?
Result: 35.6% (inactive)

Q: Given the molecule COc1ccc2nc(Nc3nc4ccc(NC(C)=O)cc4s3)sc2c1 , what is its reported activation?
Result: 20.2% (inactive)

Q: Given the molecule CN1CCN(CCC(=O)N/N=C/C=C2\N(C)c3ccccc3C2(C)C)CC1 , what is its reported activation?
Result: 8.29% (inactive)

----------
assay: activators of APP 5'UTR luciferase reporter, primary screen, SH-SY5Y cells (AID 1276); details: SH-SY5Y APP 5'UTR luciferase reporter, luminescence; at 2 µM; hits give high values; zero percent = DMSO vehicle wells
Hit rate of the full screen: of about 190,000 compounds, about 2,000 (1.1%) were called active. Many of the other results were omitted from the sample, so actives are more common in it than they were.
activation values, listed per item
Expressed in %, but write only the number.

Q: Given the compound CCC(C)NCC(=O)Nc1ccc([N+](=O)[O-])cc1C(=O)Nc1ccccc1F (configuration not stated) , what is its reported activation?
Result: -0.05

Q: Given the compound NC(=O)N1CCc2ccccc21 , what is its reported activation?
Result: -5.27

Q: Given the compound COCCNC(=O)c1ccc(N2CCC3(CC2)OCCO3)c([N+](=O)[O-])c1 , what is its reported activation?
Result: 5.47

Q: Given the compound Nc1ccc(-c2nnc(-c3ccc(-c4ccccc4)cc3)o2)cc1 , what is its reported activation?
Result: 79.7

Q: Given the compound CCc1ccc2oc(-c3ccc(N)cc3)nc2c1 , what is its reported activation?
Result: 141
